Task for the reader: assign each of the following compounds its reported EC50.
Target: Vitamin D3 receptor (Bos taurus, UniProt Q28037)
Sequence (Q28037 whole entry): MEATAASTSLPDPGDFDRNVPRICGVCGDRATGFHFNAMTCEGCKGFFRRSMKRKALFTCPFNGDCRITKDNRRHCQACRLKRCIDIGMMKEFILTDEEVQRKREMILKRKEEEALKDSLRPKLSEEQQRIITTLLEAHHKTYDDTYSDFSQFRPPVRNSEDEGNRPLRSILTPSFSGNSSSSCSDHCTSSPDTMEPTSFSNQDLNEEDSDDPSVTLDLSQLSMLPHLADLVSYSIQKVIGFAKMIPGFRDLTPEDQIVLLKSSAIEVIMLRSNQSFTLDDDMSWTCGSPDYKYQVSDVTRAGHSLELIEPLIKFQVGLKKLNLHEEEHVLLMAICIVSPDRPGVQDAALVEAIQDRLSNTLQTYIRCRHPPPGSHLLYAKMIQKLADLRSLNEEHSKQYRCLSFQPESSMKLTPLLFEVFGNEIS
Assay: Displacement of [3H]1,25-(OH)2D3 from vitamin D receptor in bovine thymus
Enter your answer as a number in nM; do not include the unit.

# EC50 of C=C1/C(=C\C=C2/CCC[C@@]3(C)C2CC[C@@H]3[C@@H](C)[C@H](CC)CCC(C)(C)O)C[C@@H](O)C[C@@H]1O (stereo partly drawn) = 0.018

# EC50 of C=C1/C(=C\C=C2/CCC[C@@]3(C)C2CC[C@@H]3[C@@H](C)[C@H](CCCC)CCC(C)(C)O)C[C@@H](O)C[C@@H]1O (stereo partly drawn) = 0.89

# EC50 of C=C1/C(=C\C=C2/CCC[C@@]3(C)C2CC[C@@H]3[C@@H](C)[C@H](C)CCC(C)(C)O)C[C@@H](O)C[C@@H]1O (stereo partly drawn) = 0.031

* * *

Molecular target: Vitamin D3 receptor (Homo sapiens)
Sequence (P11473 whole entry): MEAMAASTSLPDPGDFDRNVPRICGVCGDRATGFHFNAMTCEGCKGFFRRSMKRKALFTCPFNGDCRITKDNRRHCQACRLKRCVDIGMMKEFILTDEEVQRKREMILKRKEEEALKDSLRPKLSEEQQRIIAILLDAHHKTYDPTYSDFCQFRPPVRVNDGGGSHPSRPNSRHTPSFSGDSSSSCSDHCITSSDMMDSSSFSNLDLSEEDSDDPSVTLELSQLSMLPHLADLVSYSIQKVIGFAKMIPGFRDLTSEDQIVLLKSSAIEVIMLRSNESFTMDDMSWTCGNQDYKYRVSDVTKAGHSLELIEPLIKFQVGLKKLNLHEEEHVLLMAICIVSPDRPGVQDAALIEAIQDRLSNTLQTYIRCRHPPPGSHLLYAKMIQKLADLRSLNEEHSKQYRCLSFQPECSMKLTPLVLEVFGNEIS
Assay: Induction of transactivation of human VDR responsive gene in COS7 cells by rat osteopontin luciferase reporter gene assay
Task for the reader: assign each of the following compounds its reported EC50.
Enter your answer as a number in pM; do not include the unit.

# EC50 of C=C1/C(=C\C=C2/CCC[C@@]3(C)C2CC[C@@H]3[C@@H](C)[C@H](CCCC)CCC(C)(C)O)C[C@@H](O)C[C@@H]1O (stereo partly drawn) = 200

# EC50 of C=C1/C(=C\C=C2/CCC[C@@]3(C)C2CC[C@@H]3[C@@H](C)[C@H](C)CCC(C)(C)O)C[C@@H](O)C[C@@H]1O (stereo partly drawn) = 3

# EC50 of C=C1/C(=C\C=C2/CCC[C@@]3(C)C2CC[C@@H]3[C@@H](C)[C@H](CC)CCC(C)(C)O)C[C@@H](O)C[C@@H]1O (stereo partly drawn) = 2
